Recorded IC50, one value per entry.
# Test system: human gallbladder cancer cell GBC-SD
# assay method text: MTT proliferation inhibition, GBC-SD
# Type: cell-based
# condition: 72 h

{"columns": ["molecule", "IC50 / µM"],
 "data": [
  ["C=CCc1cccc(/C=N/NC(=O)CN2CCCN(Cc3ccccc3)CC2)c1O [Form C, orbit azine difumarate]", 6.37],
  ["C=CCc1cccc(/C=N/NC(=O)CN2CCCN(Cc3ccccc3)CC2)c1O [Form A, orbit azine monofumarate]", 6.48]
]}

###

# Tested on: human small cell lung adenocarcinoma cell A549
# assay method text: MTT proliferation inhibition, A549
# Assay type: cell-based
# condition: 72 h, monofumarate monohydrate
pIC50: −log10 of the molar value.
readout name: pIC50

{"columns": ["compound", "number"],
 "data": [
  ["C=CCc1cccc(/C=N/NC(=O)CN2CCCN(Cc3ccccc3)CC2)c1O [Form B, orbit azine monofumarate monohydrate]", 5.54]
]}

###

# System: human cervical cancer cell Hela
# assay method text: MTT proliferation inhibition, Hela
# Assay type: cell-based
# condition: 72 h, listed as an amorphous form

{"columns": ["compound", "IC50 / µM"],
 "data": [
  ["C=CCc1cccc(/C=N/NC(=O)CN2CCCN(Cc3ccccc3)CC2)c1O [Amorphous form, orbit azine monofumarate]", 5.65]
]}
